We begin with a simple list: items and their reported metabolised at 1 h.
Procedure Details: Stability in human liver microsomes assessed as metabolic turnover at 2.5 mM preincubated for 5 mins followed by phase 1 cofactor NADPH addition measured for 60 mins by HPLC analysis
Format: ADME, Microsome
Test Settings: read-out: Drug metabolism
Observed Property: metabolised at 1 h

INSERT INTO assay_data (given_smiles, value_observed) VALUES
  ('O=C1N[C@H](Cc2ccccc2)C(=O)N2Cc3[nH]c4ccccc4c3C[C@@H]12', '1.1 to 72%'),
  ('COC(=O)CC[C@H]1N[C@H](C(=O)NCc2ccc(F)cc2)Cc2c1[nH]c1ccccc21', '1.1 to 72%'),
  ('O=C1[C@@H]2Cc3c([nH]c4ccccc34)[C@@H](c3ccc(Cl)cc3)N2C(=O)N1Cc1ccc(F)cc1', '26.5%'),
  ('COC(=O)[C@@H]1Cc2c([nH]c3ccccc23)[C@@H](c2ccccc2)N1Cc1ccccc1', '1.1 to 72%');

---

Procedure Details: Stability in human liver microsomes at 2.5 mM measured up to 60 mins in absence of phase 2 cofactor UDP-GlcUA/NADPH by HPLC analysis
Assay type: ADME, Microsome
Test Settings: 1 h, 2500 µM
Observed Property: Stability

INSERT INTO measurements (molecule, observed_property, value_observed) VALUES
  ('O=C1N[C@H](Cc2ccccc2)C(=O)N2Cc3[nH]c4ccccc4c3C[C@@H]12', 'Stability', 'Stable'),
  ('COC(=O)C(Cc1c[nH]c2ccccc12)N(Cc1ccccc1)Cc1ccccc1 (centres undefined)', 'Stability', 'Stable'),
  ('COC(=O)[C@@H]1Cc2c([nH]c3ccccc23)[C@@H](c2ccccc2)N1Cc1ccccc1', 'Stability', 'Stable'),
  ('O=C1[C@@H]2Cc3c([nH]c4ccccc34)[C@@H](c3ccc(Cl)cc3)N2C(=O)N1Cc1ccc(F)cc1', 'Stability', 'Stable');
